The origin of these recorded values is a melting point compilation (Tetko et al.).

# melting point listing for each entry below
Property: melting point

INSERT INTO measurements (compound, property, result) VALUES
  ('CCc1csc(-n2cc(C(=O)O)cn2)n1', 'melting point', '159 to 161 °C'),
  ('COc1ccc(N2CCN(C(=O)CCCl)CC2)cc1', 'melting point', '73 to 75 °C'),
  ('Nc1cccc(C(=O)Nc2cccc(F)c2)c1', 'melting point', '123 to 125 °C'),
  ('NC1(C(=O)O)CCS(=O)(=O)CC1', 'melting point', '294 to 296 °C'),
  ('CC(=O)Nc1ccc(C2NC(=O)NC2=O)cc1 (stereo unspecified)', 'melting point', '314 to 316 °C'),
  ('O=C1CCS(=O)(=O)CC1', 'melting point', '167 to 169 °C'),
  ('CNC(=O)CN1CCc2ccc(N)cc21', 'melting point', '143 to 145 °C'),
  ('NNC(=O)Cc1cccc(F)c1', 'melting point', '106 to 108 °C'),
  ('O=C(O)C1(c2ccc(Br)cc2)CCCCC1', 'melting point', '179 to 181 °C'),
  ('COc1cc(CCl)ccc1S(C)(=O)=O', 'melting point', '106 to 108 °C'),
  ('Nc1ccc(F)c(NC(=O)Cc2ccccc2)c1', 'melting point', '180 to 182 °C'),
  ('C=C(C#N)C(O)c1ccc([N+](=O)[O-])cc1 (stereo unspecified)', 'melting point', '64 to 66 °C'),
  ('CC(=O)c1nc2cc(Cl)ccc2n1C', 'melting point', '96 to 98 °C'),
  ('O=C(CN1CCNCC1)N1CCCc2ccccc21', 'melting point', '64 to 66 °C'),
  ('Cc1nnc2n1CC(CO)CC2 (stereo unspecified)', 'melting point', '158 to 160 °C'),
  ('CN(C)c1ccc(N)c2cnccc12', 'melting point', '107 to 109 °C'),
  ('Cc1ccc(CNC(=O)c2cccc(C#N)c2)cc1', 'melting point', '134 to 136 °C'),
  ('CCCC(=O)Nc1c(Cl)cc(Cl)cc1C(=O)O', 'melting point', '180 to 182 °C'),
  ('O=C(O)CNC(=O)c1ccc(F)c(F)c1', 'melting point', '180 to 182 °C'),
  ('Cn1cc(C(=O)O)c(-c2ccc([N+](=O)[O-])cc2)n1', 'melting point', '299 to 301 °C'),
  ('O=C(O)Cc1coc(-c2ccccc2)n1', 'melting point', '148 to 150 °C'),
  ('COc1ccc2nc(C)nc(Cl)c2c1', 'melting point', '119 to 121 °C'),
  ('O=C(O)c1cc(Cl)c(Cl)cc1C(=O)O', 'melting point', '201 to 203 °C'),
  ('O=C(O)c1cnc(C2CCCO2)s1 (stereo unspecified)', 'melting point', '139 to 141 °C'),
  ('Cc1cc2nc(C)c(CCC(=O)O)c(C)n2n1', 'melting point', '260 to 262 °C'),
  ('Cc1ccc(C(=O)CCl)cc1', 'melting point', '53 to 57 °C'),
  ('Cc1nc2ccccn2c1I', 'melting point', '123 to 125 °C'),
  ('CC(C)NC(=O)Nc1ccc(C#N)cc1', 'melting point', '193 to 195 °C'),
  ('CN(CCCC(=O)O)C(=O)c1cc(S(N)(=O)=O)cn1C', 'melting point', '173 to 175 °C'),
  ('CC(c1ccc(Cl)cc1Cl)S(N)(=O)=O (stereo unspecified)', 'melting point', '123 to 125 °C'),
  ('CNC(=O)c1ccn(-c2ccc(N)cc2)n1', 'melting point', '152 to 154 °C');
